- measuredTarget: T1, human PVRIG on cells (human, UniProt Q6DKI7 1-326)
- T1 construct: whole, on cells; over-expressed on HEK cells or endogenous on Jurkat and CD8 T cells; also called hPVRIG; HEK hPVRIG cells
- T1 sequence (looked up): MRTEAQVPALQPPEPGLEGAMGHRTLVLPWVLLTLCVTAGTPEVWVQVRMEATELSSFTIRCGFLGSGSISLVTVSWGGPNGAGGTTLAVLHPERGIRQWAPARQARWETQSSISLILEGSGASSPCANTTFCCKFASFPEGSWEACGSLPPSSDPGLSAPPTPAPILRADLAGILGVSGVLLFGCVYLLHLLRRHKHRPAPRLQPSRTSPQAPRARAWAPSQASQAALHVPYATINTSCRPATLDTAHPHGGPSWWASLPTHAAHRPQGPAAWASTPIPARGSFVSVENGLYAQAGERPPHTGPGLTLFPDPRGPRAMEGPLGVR
- protocolSummary: FACS, human PBMC, CD8+ T cells, 10ug/ml
measure: gMFIr Human CD8+ T cells

Solved entries:
binder	gMFIr Human CD8+ T cells
CHA.7.550 (antibody, V domains shown) VH: QVQLQESGTELVKPGASVKLSCKASGYTFTSYWIHWVKQRPGQGLEWIGNINPSNGGTNYNEKFKSKAALTVDKSSSTAYMQLSSLTSEDSAVYYCARRGLPYFFDYWGQGTTLTVSS VL: DIVMTQSQKFMSTSVGDRVSVTCKGSQNVGYNVAWYQQKPGQSPKALVYSASDRHSGVPDRFAGSGSGTDFTLTISNVQSEDLAEYFCQQYNSYPLTFGAGTKLELK	1.29
CHA.7.537 (antibody, V domains shown) VH: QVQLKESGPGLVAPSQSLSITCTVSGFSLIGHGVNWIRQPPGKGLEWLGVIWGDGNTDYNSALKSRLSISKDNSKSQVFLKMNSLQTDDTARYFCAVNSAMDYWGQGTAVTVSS VL: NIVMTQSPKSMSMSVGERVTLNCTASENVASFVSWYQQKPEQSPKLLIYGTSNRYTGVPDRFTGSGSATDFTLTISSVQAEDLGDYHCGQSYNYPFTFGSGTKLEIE	3.41

Field: next binder
-- ask Name the reported gMFIr Human CD8+ T cells value associated with the binder CHA.7.528 (antibody, V domains shown) VH: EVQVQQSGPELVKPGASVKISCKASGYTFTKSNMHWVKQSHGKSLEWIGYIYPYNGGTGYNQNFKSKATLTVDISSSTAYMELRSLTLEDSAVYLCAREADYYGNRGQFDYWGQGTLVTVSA VL: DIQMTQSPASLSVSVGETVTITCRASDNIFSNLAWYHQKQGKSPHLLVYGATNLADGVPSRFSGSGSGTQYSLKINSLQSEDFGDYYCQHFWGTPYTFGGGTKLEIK
-- reply 3.63

Where these numbers come from: patent US20240075137A1
